Assay: Mean residence time in Crl:CD(SD) rat at 10 mg/kg, po
Assay type: ADME, organism-based
Set-up: dose 10 mg/kg, route oral
Conditions: in vivo
assay_readout: MRT (h)
Reply with just the number (in h).

CCC(CC)(NC(=O)c1cnn2c1NC(c1ccccc1)CC2(C)C)c1ccc(Cl)cc1.Cl (configuration not stated) = 5.65

Then this compound:
Record request: MRT value, item CCC(CC)(NC(=O)c1cnn2c1NC(c1ccccc1)CC2(C)C)c1ccc(C)cc1.Cl (racemic)
5.65

###

Target: Extracellular calcium-sensing receptor (Homo sapiens, UniProt P41180)
Sequence (P41180 whole entry): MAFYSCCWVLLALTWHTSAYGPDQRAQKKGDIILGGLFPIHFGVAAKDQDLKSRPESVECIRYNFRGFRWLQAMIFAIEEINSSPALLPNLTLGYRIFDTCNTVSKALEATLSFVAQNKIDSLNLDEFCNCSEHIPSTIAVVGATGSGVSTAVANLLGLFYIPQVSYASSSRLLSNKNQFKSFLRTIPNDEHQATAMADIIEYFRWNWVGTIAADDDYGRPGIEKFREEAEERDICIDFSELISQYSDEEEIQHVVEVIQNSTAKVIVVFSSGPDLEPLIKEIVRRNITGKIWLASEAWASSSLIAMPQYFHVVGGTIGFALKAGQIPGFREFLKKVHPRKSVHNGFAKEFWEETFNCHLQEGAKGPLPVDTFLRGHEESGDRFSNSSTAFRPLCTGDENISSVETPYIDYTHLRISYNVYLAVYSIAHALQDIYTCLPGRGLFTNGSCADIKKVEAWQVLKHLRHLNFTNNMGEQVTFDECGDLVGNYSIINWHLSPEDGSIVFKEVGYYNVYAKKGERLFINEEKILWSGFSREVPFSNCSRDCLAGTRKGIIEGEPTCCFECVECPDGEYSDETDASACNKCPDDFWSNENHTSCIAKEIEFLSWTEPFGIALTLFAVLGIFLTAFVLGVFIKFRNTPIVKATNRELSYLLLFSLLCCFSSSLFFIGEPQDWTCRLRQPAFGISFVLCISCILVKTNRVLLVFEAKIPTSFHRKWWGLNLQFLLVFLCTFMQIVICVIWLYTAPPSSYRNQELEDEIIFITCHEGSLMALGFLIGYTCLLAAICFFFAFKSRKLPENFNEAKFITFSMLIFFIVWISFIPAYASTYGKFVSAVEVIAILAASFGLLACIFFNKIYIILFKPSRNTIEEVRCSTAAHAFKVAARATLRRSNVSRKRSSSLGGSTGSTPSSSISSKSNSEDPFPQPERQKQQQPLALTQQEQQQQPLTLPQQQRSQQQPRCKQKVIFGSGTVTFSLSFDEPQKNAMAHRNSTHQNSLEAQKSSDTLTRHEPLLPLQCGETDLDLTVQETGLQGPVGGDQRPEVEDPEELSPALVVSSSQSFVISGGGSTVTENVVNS
Assay: Inhibition of CaSR expressed in CHO cells incubated with compound for 10 mins measured after 1 hr by [35S]GTPgammaS binding assay
pIC50: −log10 of the molar value.
Quick rule for you: pIC50 at 8 or higher means Y, lower means N.

Is reported pIC50 greater than or equal to 8 here: CCC(CC)(NC(=O)c1cnn2c1NC(c1ccccc1)CC2(C)C)c1ccc(OC(C)=O)cc1 (centres undefined)
N

CCCC(CCC)(NC(=O)c1cnn2c1NC(c1ccccc1)CC2(C)C)c1ccc(C(F)(F)F)cc1 (centres undefined) ?
Y

CCC(CC)(NC(=O)c1cnn2c1NC(c1ccccc1)CC2(C)C)c1cccc(F)c1 (centres undefined) ?
N

CCC(CC)(NC(=O)c1cnn2c1NC(c1ccccc1)CC2(C)C)c1ccccc1 (centres undefined) ?
Y

CCC(CC)(NC(=O)c1cnn2c1N[C@H](c1ccccc1)CC2(C)C)c1ccc(C)cc1 ?
N
